# tested target: UniProtKB O15552
# run description: Ca-Flux functional assay: determination of agonist/positive allosteric modulator (PAM) activity
# test parameters: CHO-K1 Gα16 cells stably expressing human GPR43; compound added with EC20 sodium acetate; intracellular Ca2+ by FLIPR; does not distinguish agonist from PAM
property label: EC50 (nM)
# unit: nM | format: bare number

Request: Quick one: EC50 for Nc1[nH]c2c(C3=CCCCC3)ncnc2c1S(=O)(=O)c1ccc(Cl)cc1 ?
Result: 54

Request: What about Nc1[nH]c2c(C3CCCCC3)ncnc2c1S(=O)(=O)c1ccccc1 ?
Result: 43

Request: What about Cc1nc(N2CCOC(C)(C)C2)c2[nH]c(N)c(S(=O)(=O)c3ccccc3F)c2n1 ?
Result: 6

Request: What about Nc1[nH]c2c(N3CCCC(n4cccn4)C3)ncnc2c1S(=O)(=O)c1ccccc1 (stereo not drawn) ?
Result: 1110

Request: What about Nc1[nH]c2c(C3CCCC3)ncnc2c1S(=O)(=O)c1ccccc1 ?
Result: 97

Request: What about COC1CCN(c2ncnc3c(S(=O)(=O)c4ccccc4)c(N)[nH]c23)CC1 ?
Result: 647

Request: What about Nc1[nH]c2c(N3CCC(F)(F)CC3)ncnc2c1S(=O)(=O)c1ccccc1 ?
Result: 19

Request: What about Cc1ccccc1S(=O)(=O)c1c(N)[nH]c2c(N3CCOC(C)C3)ncnc12 (stereo not drawn) ?
Result: 131

Request: What about CSc1nc(N2CCOC(C)C2)c2[nH]c(N)c(S(=O)(=O)c3cccc(F)c3)c2n1 (stereo not drawn) ?
Result: 45

----------
# tested target: human GPR43 (Homo sapiens (Human), UniProt O15552)
# Sequence (O15552 whole entry): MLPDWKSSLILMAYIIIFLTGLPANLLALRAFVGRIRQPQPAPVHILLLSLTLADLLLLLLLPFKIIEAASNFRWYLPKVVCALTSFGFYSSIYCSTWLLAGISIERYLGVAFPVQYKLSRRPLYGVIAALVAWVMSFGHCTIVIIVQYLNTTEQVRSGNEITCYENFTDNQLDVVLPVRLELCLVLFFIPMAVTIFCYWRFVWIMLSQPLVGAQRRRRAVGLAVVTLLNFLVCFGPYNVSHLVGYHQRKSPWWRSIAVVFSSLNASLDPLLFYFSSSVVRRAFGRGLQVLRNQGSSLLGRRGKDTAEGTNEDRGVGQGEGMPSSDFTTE
# run description: Ca-Flux functional assay: determination of agonist/positive allosteric modulator (PAM) activity
# test parameters: CHO-K1 Gα16 cells stably expressing human GPR43; compound added with EC20 sodium acetate; intracellular Ca2+ by FLIPR; does not distinguish agonist from PAM
property label: pEC50
Lab note: report pEC50 as minus log10 of the concentration in molar units, number only.

| compound | tested target | pEC50 |
| --- | --- | --- |
| CNc1nc(N2CCOC(C)C2)c2[nH]c(N)c(S(=O)(=O)c3ccccc3F)c2n1 (stereo not drawn) | human GPR43 (Homo sapiens (Human), UniProt O15552) | 8.30 |
| Cc1nc(N2C[C@@H](C)O[C@H](C)C2)c2[nH]c(N)c(S(=O)(=O)c3ccccc3F)c2n1 | human GPR43 (Homo sapiens (Human), UniProt O15552) | 7.96 |
| Nc1[nH]c2c(NCC3CC3)ncnc2c1S(=O)(=O)c1ccccc1 | human GPR43 (Homo sapiens (Human), UniProt O15552) | 6.12 |
| Nc1[nH]c2c(N3CCC(F)(F)CC3)ccnc2c1S(=O)(=O)c1ccccc1 | human GPR43 (Homo sapiens (Human), UniProt O15552) | 7.74 |

Request: Quick one: pEC50 for Cc1nc(OC(C)C2CCCC2)c2[nH]c(N)c(S(=O)(=O)c3ccccc3)c2n1 (stereo not drawn) ?
Result: 7.80

Request: What about Cc1nc(N2CCO[C@@H](C)C2)c2[nH]c(N)c(S(=O)(=O)c3ccc(Br)cc3F)c2n1 ?
Result: 8.70

Request: What about N#CC1CN(c2ncnc3c(S(=O)(=O)c4ccccc4)c(N)[nH]c23)CCO1 (stereo not drawn) ?
Result: 6.93

Request: What about Nc1[nH]c2c(C3=CCC(F)(F)CC3)ncnc2c1S(=O)(=O)c1ccccc1 ?
Result: 7.44

Request: What about COc1ccc(S(=O)(=O)c2c(N)[nH]c3c(N4CCOC(C)C4)ncnc23)cc1Cl (stereo not drawn) ?
Result: 6.94

Request: What about CC1COCCN1c1ncnc2c(S(=O)(=O)c3ccccc3)c(N)[nH]c12 (stereo not drawn) ?
Result: 6.68

Request: What about Cc1nc(N2CCC(F)(F)CC2)c2[nH]c(N)c(S(=O)(=O)c3ccccc3)c2n1 ?
Result: 7.70

Request: What about CN(c1ncnc2c(S(=O)(=O)c3ccccc3)c(N)[nH]c12)C1CCOC(C)(C)C1 (stereo not drawn) ?
Result: 5.71

Request: What about Nc1[nH]c2c(C3=CCCCC3)nncc2c1S(=O)(=O)c1ccccc1 ?
Result: 6.99

Request: What about COC(=O)Nc1[nH]c2c(C3=CCCCC3)ncnc2c1S(=O)(=O)c1ccccc1 ?
Result: 5.29

Request: What about Cc1nc(N2CCO[C@@H](C(F)(F)F)C2)c2[nH]c(N)c(S(=O)(=O)c3ccc(Cl)cc3F)c2n1 ?
Result: 8.70

----------
# tested target: human GPR43 (Homo sapiens (Human), UniProt O15552)
# run description: Ca-Flux functional assay: determination of agonist/positive allosteric modulator (PAM) activity
# test parameters: CHO-K1 Gα16 cells stably expressing human GPR43; compound added with EC20 sodium acetate; intracellular Ca2+ by FLIPR; does not distinguish agonist from PAM
Listing: pEC50 of selected molecules
Lab note: report pEC50 as minus log10 of the concentration in molar units, number only.

Request: Request body: readout pEC50, system human GPR43 (Homo sapiens (Human), UniProt O15552), query Cc1nc(N2C[C@H](C)OC[C@@H]2C)c2[nH]c(N)c(S(=O)(=O)c3ccccc3)c2n1 [Example 220] . Return the value.
Result: 7.68

----------
# tested target: human GPR43 (Homo sapiens (Human))
# run description: Ca-Flux functional assay: determination of agonist/positive allosteric modulator (PAM) activity
# test parameters: CHO-K1 Gα16 cells stably expressing human GPR43; compound added with EC20 sodium acetate; intracellular Ca2+ by FLIPR; does not distinguish agonist from PAM
# Protocol: Ca-Flux Functional Assay: Determination of Agonist/Positive Allosteric Modulator (PAM) Activity GPR43 agonist/PAM activity was determined by measuring changes in intracellular calcium levels using a Ca^2+ sensitive fluorescent dye. The changes in fluorescent signal were monitored by FLIPR (manufactured by Molecular Devices). GPR43 mediated increases in intracellular Ca^2+ concentration were readily detected upon activation with sodium acetate. […]
pEC50: −log10 of the molar value.
If the reported pEC50 equals or exceeds 7, assign criterion met. If not, assign criterion not met.

| compound | discrete label |
| --- | --- |
| Nc1[nH]c2c(OC3CCOCC3)ncnc2c1S(=O)(=O)c1ccccc1 | criterion not met |
| CC(Oc1ncnc2c(S(=O)(=O)c3ccccc3)c(N)[nH]c12)C1CCCC1 (centres unmarked) | criterion met |

Request: Kindly determine if pEC50 recorded for Cc1cccc(-c2nc(C)nc3c(S(=O)(=O)c4ccccc4)c(N)[nH]c23)c1 is above or exactly 7.
Result: criterion met

Request: What about COCCOc1ncnc2c(S(=O)(=O)c3ccccc3)c(N)[nH]c12 ?
Result: criterion not met

Request: What about CCc1nc(C2=CCCCC2)c2[nH]c(N)c(S(=O)(=O)c3ccccc3)c2n1 ?
Result: criterion met

----------
# tested target: human GPR43 (Homo sapiens (Human))
# run description: Ca-Flux functional assay: determination of agonist/positive allosteric modulator (PAM) activity
# Format: cell-based
# test parameters: CHO-K1 Gα16 cells stably expressing human GPR43; compound added with EC20 sodium acetate; intracellular Ca2+ by FLIPR; does not distinguish agonist from PAM
property label: EC50 (nM)
# unit: nM | format: bare number

| molecule | assay result |
| --- | --- |
| COc1ccccc1S(=O)(=O)c1c(N)[nH]c2c(N3CCOC(C)C3)ncnc12 (stereo not drawn) | 2150 |
| Cc1nc(N2CCOC(C)C2)c2[nH]c(N)c(S(=O)(=O)c3cccc(F)c3F)c2n1 (stereo not drawn) | 6 |
| Cc1nc(N2CCO[C@H](C(F)(F)F)C2)c2[nH]c(N)c(S(=O)(=O)c3cccc(F)c3F)c2n1 | 2 |
| Cc1nc(N2CCOC(C)(C)C2)c2[nH]c(N)c(S(=O)(=O)c3cc(F)ccc3F)c2n1 | 8 |
| Nc1[nH]c2c(C3CCC(F)(F)CC3)ncnc2c1S(=O)(=O)c1ccccc1 | 330 |

Request: Quick one: EC50 for Cc1nc(N2CCO[C@H](C(F)(F)F)C2)c2[nH]c(N)c(S(=O)(=O)c3c(F)cccc3F)c2n1 ?
Result: 4

Request: What about CCc1nc(C2CCCCC2)c2[nH]c(N)c(S(=O)(=O)c3ccccc3)c2n1 ?
Result: 58

Request: What about Cc1nc(N2CCC(F)(F)CC2)c2[nH]c(N)c(S(=O)(=O)c3cccc(F)c3)c2n1 ?
Result: 82

Request: What about Cc1nc(OCC(C)(C)C)c2[nH]c(N)c(S(=O)(=O)c3ccccc3)c2n1 ?
Result: 114

----------
# tested target: human GPR43 (Homo sapiens (Human), UniProt O15552)
# run description: Ca-Flux functional assay: determination of agonist/positive allosteric modulator (PAM) activity
# test parameters: CHO-K1 Gα16 cells stably expressing human GPR43; compound added with EC20 sodium acetate; intracellular Ca2+ by FLIPR; does not distinguish agonist from PAM
pEC50: −log10 of the molar value.
If the reported pEC50 equals or exceeds 7, assign TRUE. If not, assign FALSE.

Solved entries (count: 3):
| compound | discrete label |
| --- | --- |
| Cc1nc(N2CCOC(C)C2)c2[nH]c(N)c(S(=O)(=O)c3cccc(F)c3)c2n1 (stereo not drawn) | TRUE |
| Cc1nc(N2CCOC(C)(C)C2)c2[nH]c(N)c(S(=O)(=O)c3ccccc3)c2n1 | TRUE |
| Cc1nc(N2C[C@H](C)OC[C@@H]2C)c2[nH]c(N)c(S(=O)(=O)c3ccccc3F)c2n1 | TRUE |

Request: Kindly determine if pEC50 recorded for CC1CN(c2nc(C(F)(F)F)nc3c(S(=O)(=O)c4ccccc4F)c(N)[nH]c23)CCO1 (stereo not drawn) is above or exactly 7.
Result: TRUE

Request: What about Cc1nc(OC2CCOC2(C)C)c2[nH]c(N)c(S(=O)(=O)c3ccccc3)c2n1 (stereo not drawn) ?
Result: FALSE
